Measured values drawn from patent US5886146A for this set.

UniProt:P00742 measurements of IC50, listed per entry.
Sequence (P00742 235-488 limits assumed): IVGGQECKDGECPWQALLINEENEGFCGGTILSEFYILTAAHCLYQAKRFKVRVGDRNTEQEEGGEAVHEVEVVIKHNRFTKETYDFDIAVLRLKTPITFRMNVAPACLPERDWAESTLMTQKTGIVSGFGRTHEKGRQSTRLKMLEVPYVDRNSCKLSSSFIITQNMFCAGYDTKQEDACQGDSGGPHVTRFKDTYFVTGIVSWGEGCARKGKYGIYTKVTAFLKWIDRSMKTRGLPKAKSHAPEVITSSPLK
Sequence (P00742 41-179 partner limits assumed): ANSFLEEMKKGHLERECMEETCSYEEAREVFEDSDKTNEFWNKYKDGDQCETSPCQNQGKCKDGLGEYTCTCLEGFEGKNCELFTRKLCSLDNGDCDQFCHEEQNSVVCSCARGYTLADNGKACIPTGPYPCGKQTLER
Peptide text beside a SMILES is read from it. * marks the point of attachment. Hydrocinnamoyl = O=C(CCc1ccccc1)*
readout-kind: IC50 (nM)

1: N=C(N)NCCC[C@@H](C=O)NC(=O)[C@@H]1CCCN1C(=O)[C@H](CC(=O)O)NC(=O)CCC1CCCCC1
2: N=C(N)NCCC[C@@H](C=O)NC(=O)[C@@H]1CCCN1C(=O)[C@H](CC(=O)O)NC(=O)CCc1ccccc1 [HCA-Asp-Pro-Arg-al] (Hydrocinnamoyl-Asp-Pro-Arg-aldehyde)
In: Recorded IC50 values differ for 1 and 2 ; which one is higher? Pick one and reply with its label.
Out: 2
(2: 52 nM, 1: 24 nM)
